The measured values listed here are drawn from ChEMBL document CHEMBL4033628.

System: HeLa
testSummary: Potency index, ratio of camptothecin IC50 to compound IC50 for human HeLa cells
Format: functional
quantityName: Ratio IC50
Give bare numbers.

Reference set, count: 3
Oc1ccccc1-c1cc(-c2ccccc2Cl)cc(-c2ccccc2O)n1    0.02
Oc1ccc(-c2cc(-c3ccc(Cl)cc3)cc(-c3ccc(O)cc3)n2)cc1    0.01
Oc1ccc(-c2cc(-c3cccc(Cl)c3)cc(-c3ccc(O)cc3)n2)cc1    0.04

Report Ratio IC50 for every entry below.
1. Oc1cccc(-c2cc(-c3ccccc3Cl)cc(-c3cccc(O)c3)n2)c1
2. Oc1cccc(-c2cc(-c3ccccc3Cl)cc(-c3ccccc3O)n2)c1
3. Oc1ccc(-c2cc(-c3cccc(Cl)c3)cc(-c3cccc(O)c3)n2)cc1
4. Oc1ccc(-c2cc(-c3ccc(Cl)cc3)cc(-c3cccc(O)c3)n2)cc1
5. Oc1cccc(-c2cc(-c3cccc(Cl)c3)cc(-c3cccc(O)c3)n2)c1
6. Oc1cccc(-c2cc(-c3ccc(Cl)cc3)cc(-c3cccc(O)c3)n2)c1
7. Oc1ccc(-c2cc(-c3ccccc3Cl)cc(-c3cccc(O)c3)n2)cc1
8. Oc1cccc(-c2cc(-c3cccc(Cl)c3)cc(-c3ccccc3O)n2)c1

0.01
0.01
0.86
0.1
0.02
0.01
0.02
0.01
